test: in vitro; type: cell-based; conditions: mouse, l929 cells

molecule	cytotoxicity at 3.1 µM / %
CC(C)C1CCC(C)C2CCC(C)C3(O)C1C=C(CO)C(O)C23 (stereo not shown)	30

* * *

experiment: in vitro; format: cell-based; details: mouse, l929 cells

compound	cytotoxicity at 15.5 µM / %
CC(C)C1CCC(C)C2CCC(C)C3(O)C1C=C(CO)C(O)C23 (stereo not shown)	0
